TARGET: Mnk1 (Homo sapiens (Human), UniProt Q9BUB5)
Sequence (Q9BUB5 whole entry): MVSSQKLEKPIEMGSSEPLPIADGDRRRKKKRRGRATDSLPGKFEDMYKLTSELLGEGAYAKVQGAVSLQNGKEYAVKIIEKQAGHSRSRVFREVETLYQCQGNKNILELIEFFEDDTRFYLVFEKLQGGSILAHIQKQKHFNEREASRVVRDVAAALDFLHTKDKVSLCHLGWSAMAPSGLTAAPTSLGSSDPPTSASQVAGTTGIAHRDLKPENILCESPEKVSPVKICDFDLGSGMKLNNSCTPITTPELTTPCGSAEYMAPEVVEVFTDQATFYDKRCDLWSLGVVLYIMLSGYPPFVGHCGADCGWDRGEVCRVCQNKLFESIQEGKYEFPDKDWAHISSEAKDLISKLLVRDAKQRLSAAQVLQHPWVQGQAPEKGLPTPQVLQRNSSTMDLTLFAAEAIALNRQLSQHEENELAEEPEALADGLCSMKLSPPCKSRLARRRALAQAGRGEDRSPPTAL
TEST PROTOCOL: Mnk1 kinase inhibition, ADP-Glo ADP monitoring assay
Assay type: biochemical
TEST PARAMETERS: read-out: Mnk1 IC50
pIC50: −log10 of the molar value.
We use 6 as the dividing line for pIC50: on or above the line is T, below is F.

>>> print(df.to_string())
                                   molecule  cat
0       c1ccc2c(c1)ncn2-c1ccnc(NC2CCOCC2)n1    T
1  c1ccc(Cn2cc(-c3ccnc(NCCc4ccncc4)n3)cn2)cc1    F
2             COCCNc1nccc(-n2cnc3ccccc32)n1    F
3      Fc1cnc(NCCc2ccncc2)nc1-n1cnc2ccccc21    T
4  c1ccc(-n2cc(-c3ccnc(NCCc4c[nH]cn4)n3)cn2)cc1    F

Now examine the next entry.
Does the molecule `O[C@@H]1CC[C@H](Nc2nccc(-n3cnc4ccccc43)n2)C1` have recorded pIC50 that is 6 or more? T

----------
TARGET: Mnk2 (Homo sapiens (Human), UniProt Q9HBH9)
Sequence (Q9HBH9 whole entry): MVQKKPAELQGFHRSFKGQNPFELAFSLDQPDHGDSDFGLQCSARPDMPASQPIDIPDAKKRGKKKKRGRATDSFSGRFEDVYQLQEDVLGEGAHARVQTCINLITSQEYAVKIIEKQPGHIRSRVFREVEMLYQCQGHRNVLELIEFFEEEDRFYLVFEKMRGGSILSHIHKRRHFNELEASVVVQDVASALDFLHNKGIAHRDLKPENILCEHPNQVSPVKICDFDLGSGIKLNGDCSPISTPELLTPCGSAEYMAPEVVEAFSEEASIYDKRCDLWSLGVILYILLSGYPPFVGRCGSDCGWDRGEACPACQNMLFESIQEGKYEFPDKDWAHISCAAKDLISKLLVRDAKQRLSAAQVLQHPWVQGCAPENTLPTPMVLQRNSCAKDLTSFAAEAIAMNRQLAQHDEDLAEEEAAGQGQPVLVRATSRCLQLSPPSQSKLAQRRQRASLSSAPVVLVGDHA
TEST PROTOCOL: Mnk2 kinase inhibition, ADP-Glo ADP monitoring assay
Format: biochemical
TEST PARAMETERS: ADP-Glo kinase assay; read-out: Mnk2 IC50
I'd appreciate it if you marked entries MET when IC50 is lower than 0.8 µM and NOT MET when it is not.

>>> df
                                   molecule  cat
0  c1ccc2c(c1)ncn2-c1ccnc(NC2COC2)n1 [NUCC-0176150]  MET

A record lists COCCNc1nccc(-n2cnc3ccccc32)n1 [NUCC-0176342] . Is its IC50 below 0.8 µM? MET

Would you mind doing c1ccc2c(c1)cnn2-c1ccnc(NCCc2ccncc2)n1 [NUCC-0176346] as well? NOT MET

Would you mind doing CNC(=O)c1ccc(Nc2nccc(-n3cnc4ccccc43)n2)cc1 [NUCC-0125596] as well? MET

Would you mind doing COc1cccc(-c2cn(-c3ccnc(NCCc4c[nH]cn4)n3)c3ccccc23)c1 [NUCC-0125599] as well? NOT MET

Would you mind doing c1ccc2c(c1)CCN2c1ccnc(N[C@@H]2CCOC2)n1 [NUCC-0176232] as well? NOT MET

Would you mind doing S=c1oc2ccccc2n1-c1ccnc(NCCc2ccncc2)n1 [NUCC-0176354] as well? NOT MET

Would you mind doing c1cc2c(cn1)ncn2-c1ccnc(NC2CCOC2)n1 (stereo not drawn) [NUCC-0176152] as well? NOT MET

Would you mind doing COc1cnc(NCCc2ccncc2)nc1-n1cnc2ccccc21 [NUCC-0175698] as well? NOT MET

Would you mind doing NC(=O)CNc1ncc(Cl)c(-n2cnc3ccccc32)n1 [NUCC-0176359] as well? MET

Would you mind doing c1ccc2c(c1)ncn2-c1cc(NCCc2ccncc2)ncn1 [NUCC-0176284] as well? NOT MET

Would you mind doing OC1CCC(Nc2nccc(-n3cnc4ccccc43)n2)CC1 (stereo not drawn) [NUCC-0176145] as well? MET

Would you mind doing O=C1NCCCCC1Nc1ccnc(-n2cnc3ccccc32)n1 (stereo not drawn) [NUCC-0176368] as well? NOT MET

Would you mind doing CN(C)CCNc1nccc(-n2cnc3ccccc32)n1 [NUCC-0125582] as well? MET

Would you mind doing Cn1cc(-c2ccnc(N3CCC[C@H]3CO)n2)cn1 [NUCC-0060896] as well? NOT MET

Would you mind doing c1ccc2c(c1)ncn2-c1ccnc(N[C@H]2CCOC2)n1 [NUCC-0176148] as well? MET

Would you mind doing Clc1cnc(NCCc2c[nH]c3ccccc23)nc1-n1cnc2ccccc21 [NUCC-0176355] as well? NOT MET

Would you mind doing c1ccc2c(c1)cnn2-c1nccc(NCCc2ccncc2)n1 [NUCC-0176347] as well? NOT MET

Would you mind doing OCCNc1ncc(Cl)c(-n2cnc3ccccc32)n1 [NUCC-0176358] as well? MET

Would you mind doing NC(=O)c1ccc(Nc2nccc(-n3cnc4ccccc43)n2)cc1 [NUCC-0125594] as well? MET

Would you mind doing c1ccc2c(c1)ncn2-c1ccnc(NC2CCNC2)n1 (stereo not drawn) [NUCC-0125592] as well? MET

Would you mind doing c1ccc2c(c1)ncn2-c1ccnc(N[C@@H]2CCOC2)n1 [NUCC-0176149] as well? MET

Would you mind doing c1ccc2c(c1)ccn2-c1cc(NCCc2ccncc2)ncn1 [NUCC-0176285] as well? NOT MET

Would you mind doing c1cncc(CCNc2nccc(-n3cnc4ccccc43)n2)c1 [NUCC-0176340] as well? MET

Would you mind doing c1cnc2ncn(-c3ccnc(NC4CCOC4)n3)c2c1 (stereo not drawn) [NUCC-0176142] as well? NOT MET
